system: Haemophilus parainfluenzae; assay: growth AUC normalised to DMSO control (fraction of control); higher = less growth inhibition, active = hit call of the paper; conditions: 20 µM
Where a name gives a salt, the structure may show the parent alone.
Measured growth AUC normalised to DMSO control values are reported for all entries that follow.

>  <compound>
NCCCC[C@H](N[C@@H](CCc1ccccc1)C(=O)O)C(=O)N1CCC[C@H]1C(=O)O

>  <readout>
growth AUC normalised to DMSO control

>  <result>
0.992 (inactive)

$$$$
>  <compound>
O=C(NC(Cc1cc(=O)[nH]c2ccccc12)C(=O)O)c1ccc(Cl)cc1 (stereo unspecified) [Rebamipide]

>  <readout>
growth AUC normalised to DMSO control

>  <result>
1.01 (inactive)

$$$$
>  <compound>
C[C@@H](c1ncncc1F)[C@](O)(Cn1cncn1)c1ccc(F)cc1F

>  <readout>
growth AUC normalised to DMSO control

>  <result>
0.977 (inactive)

$$$$
>  <compound>
Nc1ccn([C@@H]2CS[C@H](CO)O2)c(=O)n1

>  <readout>
growth AUC normalised to DMSO control

>  <result>
0.999 (inactive)

$$$$

Reported growth AUC normalised to DMSO control for Haemophilus parainfluenzae, given N#Cc1ccc(C(c2ccc(C#N)cc2)n2cncn2)cc1 ?
1.01 (inactive)

Reported growth AUC normalised to DMSO control for Haemophilus parainfluenzae, given CC(CN(C)C)C(C)(O)Cc1ccc(Cl)cc1 (stereo unspecified) [Clobutinol hydrochloride] ?
0.963 (inactive)
